Recorded BI, one value per entry.
- System: 266 human PDZ domains (PDZome)
- testDetails: Holdup assay (chromatographic retention, PDZome-binding profile, BI)
- Design: key: binding intensity: 0.00 = no binding, 1.00 = maximal binding
- measurementConditions: PDZ domain NHERF1-2
*1 amine or outer side, *2 acyl side, *3 side chain or, on linkers, in order; H or OH if unused. Where a SMILES comes first, the peptide text is derived from it. The star is where a group is joined. X1 = O=C(CCCC[C@@H]1SC[C@@H]2NC(=O)N[C@@H]21)NCCCOCCOCCOCCCN*; Suc = O=C(CCC(=O)[*:2])[*:1]
Reply: number alone, nothing else.

Below, each entry is followed by its recorded BI result.
# compound, observedResult
records = [
    ("CC[C@H](C)[C@H](NC(=O)[C@H](CCC(N)=O)NC(=O)[C@@H](NC(=O)[C@H](Cc1c[nH]cn1)NC(=O)[C@H](CCC(N)=O)NC(=O)[C@H](CC(=O)O)NC(=O)[C@H](CCC(=O)O)NC(=O)[C@H](CC(=O)O)NC(=O)[C@H](Cc1ccccc1)NC(=O)[C@@H]1CCCN1C(=O)CCC(=O)NCCCOCCOCCOCCCNC(=O)CCCC[C@@H]1SC[C@@H]2NC(=O)N[C@@H]21)[C@@H](C)O)C(=O)N[C@H](C(=O)N[C@@H](CCCCN)C(=O)N[C@H](C(=O)O)C(C)C)[C@@H](C)O [PTEN_13] ({X1-Suc}-PFDEDQHTQITKV-OH)", 0.132),
    ("CC[C@H](C)[C@H](NC(=O)[C@H](CCC(N)=O)NC(=O)[C@@H](NC(=O)[C@H](Cc1c[nH]cn1)NC(=O)[C@H](CCC(N)=O)NC(=O)[C@H](CC(=O)O)NC(=O)[C@H](CCC(=O)O)NC(=O)[C@H](CC(=O)O)NC(=O)CCC(=O)NCCCOCCOCCOCCCNC(=O)CCCC[C@@H]1SC[C@@H]2NC(=O)N[C@@H]21)[C@@H](C)O)C(=O)N[C@H](C(=O)N[C@@H](CCCNC(=N)N)C(=O)N[C@H](C(=O)O)C(C)C)[C@@H](C)O [PTEN_KR] ({X1-Suc}-DEDQHTQITRV-OH)", 0.063),
]

Now, please, on to the next compound.
Identify measured BI corresponding to CC[C@H](C)[C@H](NC(=O)[C@H](CCC(N)=O)NC(=O)[C@@H](NC(=O)[C@H](Cc1c[nH]cn1)NC(=O)[C@H](CCC(N)=O)NC(=O)[C@H](CC(=O)O)NC(=O)[C@H](CCC(=O)O)NC(=O)[C@H](CC(=O)O)NC(=O)CCC(=O)NCCCOCCOCCOCCCNC(=O)CCCC[C@@H]1SC[C@@H]2NC(=O)N[C@@H]21)[C@@H](C)O)C(=O)N[C@H](C(=O)N[C@@H](CCCCN)C(=O)N[C@H](C(=O)O)C(C)C)[C@@H](C)O
0.094

* * *

Some compounds, each annotated with its measured BI.
- targetOrTestSystem: PTPN13 PDZ 2 (Homo sapiens, UniProt Q12923)
- Construct: made in house; host or cells: E. coli
- Sequence (Q12923 1368-1452 limits assumed): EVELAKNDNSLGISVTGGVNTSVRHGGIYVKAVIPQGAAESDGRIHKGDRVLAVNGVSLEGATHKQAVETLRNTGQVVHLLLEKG
- testDetails: Holdup assay, PTPN13-2
- Format: binding
- measurementConditions: PDZ domain PTPN13-2
*1 amine or outer side, *2 acyl side, *3 side chain or, on linkers, in order; H or OH if unused. Where a SMILES comes first, the peptide text is derived from it. The star is where a group is joined. X1 = O=C(CCCC[C@@H]1SC[C@@H]2NC(=O)N[C@@H]21)NCCCOCCOCCOCCCN*; Suc = O=C(CCC(=O)[*:2])[*:1]
Field format: numeric only.

See these solved cases before continuing.
# compound, BI
rows = [
    ("CC[C@H](C)[C@H](NC(=O)[C@H](CCC(N)=O)NC(=O)[C@@H](NC(=O)[C@H](Cc1c[nH]cn1)NC(=O)[C@H](CCC(N)=O)NC(=O)[C@H](CC(=O)O)NC(=O)[C@H](CCC(=O)O)NC(=O)[C@H](CC(=O)O)NC(=O)[C@H](Cc1ccccc1)NC(=O)[C@@H]1CCCN1C(=O)CCC(=O)NCCCOCCOCCOCCCNC(=O)CCCC[C@@H]1SC[C@@H]2NC(=O)N[C@@H]21)[C@@H](C)O)C(=O)N[C@H](C(=O)N[C@@H](CCCCN)C(=O)N[C@H](C(=O)O)C(C)C)[C@@H](C)O [PTEN_13] ({X1-Suc}-PFDEDQHTQITKV-OH)", 0.482),
    ("CC[C@H](C)[C@H](NC(=O)[C@H](CCC(N)=O)NC(=O)[C@@H](NC(=O)[C@H](Cc1c[nH]cn1)NC(=O)[C@H](CCC(N)=O)NC(=O)[C@H](CC(=O)O)NC(=O)[C@H](CCC(=O)O)NC(=O)[C@H](CC(=O)O)NC(=O)CCC(=O)NCCCOCCOCCOCCCNC(=O)CCCC[C@@H]1SC[C@@H]2NC(=O)N[C@@H]21)[C@@H](C)O)C(=O)N[C@H](C(=O)N[C@@H](CCCNC(=N)N)C(=O)N[C@H](C(=O)O)C(C)C)[C@@H](C)O [PTEN_KR] ({X1-Suc}-DEDQHTQITRV-OH)", 0.138),
]

Now turn to the next compound.
Quote BI with test system PTPN13 PDZ 2 (Homo sapiens, UniProt Q12923) for CC[C@H](C)[C@H](NC(=O)[C@H](CCC(N)=O)NC(=O)[C@@H](NC(=O)[C@H](Cc1c[nH]cn1)NC(=O)[C@H](CCC(N)=O)NC(=O)[C@H](CC(=O)O)NC(=O)[C@H](CCC(=O)O)NC(=O)[C@H](CC(=O)O)NC(=O)CCC(=O)NCCCOCCOCCOCCCNC(=O)CCCC[C@@H]1SC[C@@H]2NC(=O)N[C@@H]21)[C@@H](C)O)C(=O)N[C@H](C(=O)N[C@@H](CCCCN)C(=O)N[C@H](C(=O)O)C(C)C)[C@@H](C)O
0.184
